The measurements presented in this section are drawn from ChEMBL document CHEMBL1131993.

Molecular target: Muscarinic acetylcholine receptor M1 (Homo sapiens) (UniProt P11229)
Sequence (P11229 whole entry): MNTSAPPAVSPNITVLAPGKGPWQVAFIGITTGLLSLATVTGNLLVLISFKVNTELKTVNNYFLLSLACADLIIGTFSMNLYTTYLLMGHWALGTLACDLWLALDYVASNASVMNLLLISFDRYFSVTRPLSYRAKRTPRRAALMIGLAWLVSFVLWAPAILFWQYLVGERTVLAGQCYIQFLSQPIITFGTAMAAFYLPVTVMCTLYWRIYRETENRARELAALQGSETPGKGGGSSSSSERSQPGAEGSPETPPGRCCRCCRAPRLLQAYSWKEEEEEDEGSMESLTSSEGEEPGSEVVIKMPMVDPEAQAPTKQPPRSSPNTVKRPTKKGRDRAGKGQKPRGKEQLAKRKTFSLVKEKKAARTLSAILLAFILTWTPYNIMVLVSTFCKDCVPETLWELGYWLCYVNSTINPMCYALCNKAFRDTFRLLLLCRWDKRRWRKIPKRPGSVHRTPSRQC
Assay: Ability to displace [3H]N-methylscopolamine binding to M1 human recombinant muscarinic receptor in CHO cells at concentration 10 uM
Type: cell-based
Label Y for high-side inhibition (at or above 60%) and N for low-side inhibition (below it).

Field: example entries. Status: answers known.
Oc1ccc(-c2cc(/C=C3/CN4CCC3C4)on2)cc1 (configuration not stated) = N
N#Cc1ccc(-c2cc(/C=C3\CN4CCC3CC4)on2)cc1 = N
COc1ccc(COc2ccc(-c3cc(/C=C4\CN5CCC4C5)on3)cc2)cc1 (configuration not stated) = Y
Nc1ccc(-c2cc(/C=C3/CN4CCC3CC4)on2)cc1 = Y
Oc1ccc(-c2cc(/C=C3/CN4CCC3CC4)on2)cc1 = Y
Oc1ccc(-c2cc(/C=C3/CN4CCC3C4)on2)cc1O (configuration not stated) = N

Input line: In plain terms: is recorded inhibition at least 60% for `CC(C)(C)OC(=O)Nc1ccc(-c2cc(/C=C3/CN4CCC3CC4)on2)cc1` ?
Output line: Y

Input line: In plain terms: is recorded inhibition at least 60% for `Fc1ccc(-c2cc(/C=C3\CN4CCC3CC4)on2)cc1` ?
Output line: N
